# protocol.notes: NCI Yeast Anticancer Drug Screen. Data for the rad50 strain (AID 155);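 also: 0% = growth of vehicle-only cultures of the same strain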
# test.parameters: S. cerevisiae rad50 strain growth inhibition; at 50.0 µM (retest, dose inferred, filed as 5.0); stronger effect = higher value
About 79,000 compounds went through this panel and 15% of them were active in at least one assay; those are over-represented in the sample as a whole.
quantity.name: growth inhibition (%)
// note: answer is a bare numeric in %

The value of growth inhibition measured for the compound CCCCC(O)CC (centres undefined) turned out to be 0

The value of growth inhibition measured for the compound CO[C@H](C(=O)[C@@H](O)[C@@H](C)O)[C@@H]1Cc2cc3cc(OC4CC(OC5CC(O)C(O)C(C)O5)C(O)C(C)O4)c(C)c(O)c3c(O)c2C(=O)[C@H]1OC1CC(OC2CC(OC3CC(C)(O)C(O)C(C)O3)C(O)C(C)O2)C(O)C(C)O1 (some centres undefined) turned out to be 77

The value of growth inhibition measured for the compound [N-]=[N+]=NC(=O)Nc1cccc(C(F)(F)F)c1 turned out to be 99

The value of growth inhibition measured for the compound NC(=O)SCC(=O)NNc1ccccc1 turned out to be 54

The value of growth inhibition measured for the compound CCCC1CCC(=C2C(=O)CCC2=O)O1 (centres undefined) turned out to be 21

The value of growth inhibition measured for the compound O=C(/C(=C\c1ccc(Cl)c(Cl)c1)c1ccccc1)c1ccc(O)cc1 turned out to be 91

The value of growth inhibition measured for the compound CCCCCCCc1c(Cl)nc(Cl)nc1Cl turned out to be 92

The value of growth inhibition measured for the compound CN(C)Cc1cc(CN(C)C)c(O)c(CN(C)C)c1 turned out to be 19

The value of growth inhibition measured for the compound Oc1cccc2c1-c1ccccc1C2 turned out to be 96

The value of growth inhibition measured for the compound O=[N+]([O-])C(/C=C(\Cl)[N+](=O)[O-])=C(Nc1ccccc1)Nc1ccccc1 turned out to be 98

The value of growth inhibition measured for the compound CC1=CC(C)=Nc2ccc(Cl)cc2N1 turned out to be 9

The value of growth inhibition measured for the compound Cc1cccc2c1Oc1cc(Cl)ccc1C2NC(=O)CCN1CCCCC1 (centres undefined) turned out to be 24

The value of growth inhibition measured for the compound O=C1C(=Cc2ccc(O)cc2)N=C(c2ccccc2)N1n1c(-c2ccccc2)nc2ccccc2c1=O turned out to be 39

The value of growth inhibition measured for the compound Cc1nc2c(Br)cc(Br)cc2c(=O)n1-c1ccccc1NC1OC(CO)C(O)C(O)C1O (centres undefined) turned out to be 41

The value of growth inhibition measured for the compound COc1ccc(CC(=O)c2ccc(O)cc2O)cc1 turned out to be 90

The value of growth inhibition measured for the compound COc1cccc2c1C(=O)c1c(O)c3c(c(O)c1C2=O)CC(O)(C(C)=O)CC3OC1CC(N)C(O)C(C)O1 (centres undefined) turned out to be 40

The value of growth inhibition measured for the compound NCC(=O)OCN1C(=O)C2C3C=CC(C2C1=O)C1C2C(=O)N(COC(=O)CN)C(=O)C2C31 (centres undefined) turned out to be 63

The value of growth inhibition measured for the compound Nc1ccc(Cn2ccc3c4c(N)nc(N)nc4ccc32)cc1 turned out to be 83

The value of growth inhibition measured for the compound O=[N+]([O-])c1c(Br)cc(Br)c2c1Nc1c(ccc(Cl)c1Cl)S2 turned out to be 94
